Test system: U2OS
MEASUREMENT_DESCRIPTION: Multiplex assay against U2OS
Assay type: toxicity, cell-based
ASSAY_CONTEXT: human, 48 h, 10 µM, compound concentration 10 uM, replicate 2
Assign Criterion met whenever Population Fragmented Nuclei (%) does not fall below 20%; assign Criterion not met whenever it does.

INSERT INTO assay_data (compound, class) VALUES
  ('Cc1cc(C)cc(-c2cnc3cc(Cl)c(-c4cccc(O)c4)cc3c2OCCCN)c1', 'Criterion met'),
  ('CCOCCn1cc(C(=O)Nc2ccc(-n3nc(-c4cccnc4)cc3C(F)(F)F)cn2)ccc1=O', 'Criterion not met'),
  ('COc1cc(-n2cnc3cc(-c4ccc(Cl)cc4)sc3c2=O)ccc1OCCN1CCCC1', 'Criterion met'),
  ('Cl.N#Cc1ccc2[nH]cc(CCCCN3CCN(c4ccc5oc(C(N)=O)cc5c4)CC3)c2c1 [VILAZODONE HYDROCHLORIDE]', 'Criterion met'),
  ('NC(=O)Nc1cc(-c2cccc(F)c2)sc1C(=O)N[C@H]1CCCNC1', 'Criterion not met'),
  ('O=C1NCN(c2ccccc2)C12CCN(CCCOc1ccc(F)cc1)CC2 [SPIRAMIDE]', 'Criterion not met'),
  ('CC(C)NCC(O)COc1ccc(CCOCC2CC2)cc1.Cl (stereo not given) [BETAXOLOL HYDROCHLORIDE]', 'Criterion not met'),
  ('CN(C)CC#Cc1ccc(OCCCc2sc(N3CCc4cccc(C(=O)Nc5nc6ccccc6s5)c4C3)nc2C(=O)O)c(F)c1', 'Criterion met'),
  ('C[C@@H](NCCCc1cccc(C(F)(F)F)c1)c1cccc2ccccc12.Cl [CINACALCET HYDROCHLORIDE]', 'Criterion not met'),
  ('CN1CCC[C@@H]1CCO[C@](C)(c1ccccc1)c1ccc(Cl)cc1.O=C(O)/C=C/C(=O)O [CLEMASTINE FUMARATE]', 'Criterion met');

----------
Test system: U2OS
MEASUREMENT_DESCRIPTION: Multiplex assay against U2OS
Format: toxicity, cell-based
ASSAY_CONTEXT: human, 48 h, 1 µM, compound concentration 1 uM, replicate 2
PROPERTY_MEASURED: Population Normal (%)

INSERT INTO measurements (molecule, value_measured) VALUES
  ('CNc1nc(NCc2ccc(NS(C)(=O)=O)cc2Cl)cc(-c2ccccn2)n1', 96),
  ('Cl.N#Cc1ccc2[nH]cc(CCCCN3CCN(c4ccc5oc(C(N)=O)cc5c4)CC3)c2c1 [VILAZODONE HYDROCHLORIDE]', 97),
  ('Cc1csc2c(N[C@@H](C)CN3CCN(S(=O)(=O)c4ccc(Cl)c(Cl)c4)CC3)ncnc12', 95),
  ('CN1CCN(c2ccc(OC(F)(F)F)c(Nc3ncc4c(n3)-c3c(c(C(N)=O)nn3CCO)CC4)c2)CC1', 93),
  ('Cc1cc(C)cc(-c2cnc3cc(Cl)c(-c4cccc(O)c4)cc3c2OCCCN)c1', 95),
  ('Cn1cc(-c2[nH]c3cc(NC(=O)[C@H](N)C4CCCCC4)cc4c3c2C=NNC4=O)cn1', 94),
  ('CC[C@H](C)C(=O)O[C@H]1C[C@@H](C)C=C2C=C[C@H](C)[C@H](CC[C@@H]3C[C@@H](O)CC(=O)O3)[C@H]21', 92),
  ('c1cn2cc(-c3ccc4cn[nH]c4c3)nc(Nc3ccc(N4CCOCC4)cc3)c2n1', 96),
  ('CN(C)C(=O)N[C@H]1CC[C@H](CCN2CCN(c3cccc(Cl)c3Cl)CC2)CC1.Cl [CARIPRAZINE HYDROCHLORIDE]', 97),
  ('CN1CCN(CCOc2cc(OC3CCOCC3)c3c(Nc4c(Cl)ccc5c4OCO5)ncnc3c2)CC1', 93);

----------
Test system: HEK-293T
MEASUREMENT_DESCRIPTION: Multiplex assay against HEK293T
Type: toxicity, cell-based
ASSAY_CONTEXT: human, 12 h, 1 µM, compound concentration 1 uM, replicate 1
# key: entry, value: Population Mitotic Cells (%)
PROPERTY_MEASURED: Population Mitotic Cells (%)

INSERT INTO results (compound, unit_annotation, value_measured) VALUES
  ('CC[C@H](C)C(=O)O[C@H]1C[C@@H](C)C=C2C=C[C@H](C)[C@H](CC[C@@H]3C[C@@H](O)CC(=O)O3)[C@H]21', '%', 51),
  ('Cc1cc(C)cc(-c2cnc3cc(Cl)c(-c4cccc(O)c4)cc3c2OCCCN)c1', '%', 46),
  ('CN1CCN(CCOc2cc(OC3CCOCC3)c3c(Nc4c(Cl)ccc5c4OCO5)ncnc3c2)CC1', '%', 48),
  ('C=CC(=O)Nc1cccc(C(=O)Nc2ccc(Nc3cc(-c4[nH]c(SC)nc4C)ccn3)cc2)c1', '%', 51),
  ('C=CC(=O)Nc1ccc2ncnc(Nc3ccc(OCc4cccc(F)c4)c(Cl)c3)c2c1.Cc1ccc(S(=O)(=O)O)cc1', '%', 47),
  ('C[C@@H](NCCCc1cccc(C(F)(F)F)c1)c1cccc2ccccc12.Cl [CINACALCET HYDROCHLORIDE]', '%', 51),
  ('c1cn2cc(-c3ccc4cn[nH]c4c3)nc(Nc3ccc(N4CCOCC4)cc3)c2n1', '%', 45),
  ('CN(C)C(=O)N[C@H]1CC[C@H](CCN2CCN(c3cccc(Cl)c3Cl)CC2)CC1.Cl [CARIPRAZINE HYDROCHLORIDE]', '%', 51),
  ('C=CC(=O)Nc1cc2c(Nc3ccc(F)c(Cl)c3)ncnc2cc1OCCCN1CCOCC1.Cl.Cl [CANERTINIB DIHYDROCHLORIDE]', '%', 29),
  ('Cc1[nH]c(/C=C2\C(=O)Nc3ccc(S(=O)(=O)N(C)c4cccc(Cl)c4)cc32)c(C)c1C(=O)N1CCN(C)CC1', '%', 39),
  ('CC(C)NCC(O)COc1ccc(CCOCC2CC2)cc1.Cl (centres undefined) [BETAXOLOL HYDROCHLORIDE]', '%', 56),
  ('COc1cccc([C@@H](C)NCCCc2ccccc2Cl)c1.Cl [TECALCET HYDROCHLORIDE]', '%', 54),
  ('Cc1c(-c2ccc(O)cc2)n(Cc2ccc(OCCN3CCCCCC3)cc2)c2ccc(O)cc12', '%', 59),
  ('Cc1nc(-c2cn3c(n2)-c2ccc(-c4cnn(C(C)(C)C(N)=O)c4)cc2OCC3)n(C(C)C)n1', '%', 78),
  ('CN1CCCC(n2nc(Cc3ccc(Cl)cc3)c3ccccc3c2=O)CC1.Cl (centres undefined) [AZELASTINE HYDROCHLORIDE]', '%', 49),
  ('C[C@@]1(C(=O)Nc2ccc(F)nc2)CCCN1c1nc(Nc2cc(C3CC3)n[nH]2)c2cccn2n1', '%', 75),
  ('CN1CCC[C@@H]1CCO[C@](C)(c1ccccc1)c1ccc(Cl)cc1.O=C(O)/C=C/C(=O)O [CLEMASTINE FUMARATE]', '%', 43),
  ('CCN(CC)CCCCNc1ncc2cc(-c3cc(OC)cc(OC)c3)c(NC(=O)NC(C)(C)C)nc2n1', '%', 91),
  ('Cc1csc2c(N[C@@H](C)CN3CCN(S(=O)(=O)c4ccc(Cl)c(Cl)c4)CC3)ncnc12', '%', 41),
  ('COc1ncc(-c2ccc3nccc(-c4ccnnc4)c3c2)cc1NS(=O)(=O)c1ccc(F)cc1F', '%', 39),
  ('CC(C)(O)CNc1ncc(-c2ccnc(Nc3ccnc(Cl)c3)n2)c(CC2CC2)n1', '%', 40),
  ('O=C1NCN(c2ccccc2)C12CCN(CCCOc1ccc(F)cc1)CC2 [SPIRAMIDE]', '%', 58),
  ('Cl.N#Cc1ccc2[nH]cc(CCCCN3CCN(c4ccc5oc(C(N)=O)cc5c4)CC3)c2c1 [VILAZODONE HYDROCHLORIDE]', '%', 46),
  ('CN(C)CC#Cc1ccc(OCCCc2sc(N3CCc4cccc(C(=O)Nc5nc6ccccc6s5)c4C3)nc2C(=O)O)c(F)c1', '%', 66);

----------
# key: entry, value: Population Apoptotic (%)
System: Fibroblast
MEASUREMENT_DESCRIPTION: Multiplex assay against human fibroblast
Assay type: toxicity, cell-based
ASSAY_CONTEXT: 48 h, 1 µM, compound concentration 1 uM, replicate 1
PROPERTY_MEASURED: Population Apoptotic (%)

INSERT INTO measurements (compound, subject_of_test, value_measured) VALUES
  ('Cc1[nH]c(/C=C2\C(=O)Nc3ccc(S(=O)(=O)N(C)c4cccc(Cl)c4)cc32)c(C)c1C(=O)N1CCN(C)CC1', 'Fibroblast', 61),
  ('O=C1NCN(c2ccccc2)C12CCN(CCCOc1ccc(F)cc1)CC2 [SPIRAMIDE]', 'Fibroblast', 60),
  ('Cl.N#Cc1ccc2[nH]cc(CCCCN3CCN(c4ccc5oc(C(N)=O)cc5c4)CC3)c2c1 [VILAZODONE HYDROCHLORIDE]', 'Fibroblast', 60);
